Target: T1, biotinylated cyno IL-33 (cynomolgus monkey, UniProt A0A2K5W3I1 112-269, biotin-labeled with EZ-LINK NHS-PEG4-Biotin)
T1 construct: also called biotin-cyIL-33
T1 sequence: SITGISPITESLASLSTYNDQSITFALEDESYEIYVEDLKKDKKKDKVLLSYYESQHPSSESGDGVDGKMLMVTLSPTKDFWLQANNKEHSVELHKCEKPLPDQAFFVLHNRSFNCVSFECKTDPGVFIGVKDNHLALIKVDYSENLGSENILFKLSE
Test: competitive ELISA, biotin-cyIL-33 to coated hST2-Fc
pIC50: −log10 of the molar value.
METRIC NAME: pIC50

binder="H1M9568N (antibody, IgG1, V domains shown, also called RG3) VH: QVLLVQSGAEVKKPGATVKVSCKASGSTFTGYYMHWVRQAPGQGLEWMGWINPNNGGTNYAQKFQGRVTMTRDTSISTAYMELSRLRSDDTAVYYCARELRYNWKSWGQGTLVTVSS VL: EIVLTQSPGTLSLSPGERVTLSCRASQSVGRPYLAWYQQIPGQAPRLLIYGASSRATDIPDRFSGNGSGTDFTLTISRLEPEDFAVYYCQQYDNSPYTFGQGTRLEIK" metric_name=pIC50 val=7.11
binder="10C12.38.H6.87Y.58I IgG4 (antibody, V domains shown, also called anti-IL33 10C12.38.H6.87Y.58I IgG4) VH: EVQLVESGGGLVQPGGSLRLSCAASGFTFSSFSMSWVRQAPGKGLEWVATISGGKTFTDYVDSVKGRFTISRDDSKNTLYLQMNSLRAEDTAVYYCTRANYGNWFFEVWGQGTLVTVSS VL: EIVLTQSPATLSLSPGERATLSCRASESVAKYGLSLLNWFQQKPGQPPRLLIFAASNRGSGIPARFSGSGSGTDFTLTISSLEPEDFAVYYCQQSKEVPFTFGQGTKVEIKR" metric_name=pIC50 val=9.37
binder="H4H9663P (antibody, V domains shown) VH: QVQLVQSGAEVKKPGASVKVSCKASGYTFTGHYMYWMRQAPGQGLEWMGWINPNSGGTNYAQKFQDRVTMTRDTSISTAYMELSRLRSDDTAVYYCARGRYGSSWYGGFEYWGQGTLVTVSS VL: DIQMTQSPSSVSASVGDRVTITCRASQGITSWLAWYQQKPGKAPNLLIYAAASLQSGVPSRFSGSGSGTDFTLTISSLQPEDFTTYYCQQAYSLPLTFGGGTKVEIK" metric_name=pIC50 val=7.59
binder="H4H9660P (antibody, V domains shown) VH: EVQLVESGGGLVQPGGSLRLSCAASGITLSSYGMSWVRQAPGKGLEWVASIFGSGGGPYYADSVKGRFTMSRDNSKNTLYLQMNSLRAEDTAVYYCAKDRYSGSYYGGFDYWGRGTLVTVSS VL: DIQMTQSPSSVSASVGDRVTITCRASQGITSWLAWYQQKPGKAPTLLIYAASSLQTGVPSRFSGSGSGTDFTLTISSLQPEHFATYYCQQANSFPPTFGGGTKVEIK" metric_name=pIC50 val=6.92
binder="H4H9665P (antibody, V domains shown) VH: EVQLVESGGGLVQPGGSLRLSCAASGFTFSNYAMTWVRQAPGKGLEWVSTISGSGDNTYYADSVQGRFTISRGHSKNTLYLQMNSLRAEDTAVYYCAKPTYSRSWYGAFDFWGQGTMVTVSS VL: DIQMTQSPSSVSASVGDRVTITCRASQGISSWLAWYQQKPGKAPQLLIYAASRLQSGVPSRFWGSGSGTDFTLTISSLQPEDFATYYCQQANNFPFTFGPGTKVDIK" metric_name=pIC50 val=7.72
binder="H4H9659P (antibody, IgG4, V domains shown, also called RG7) VH: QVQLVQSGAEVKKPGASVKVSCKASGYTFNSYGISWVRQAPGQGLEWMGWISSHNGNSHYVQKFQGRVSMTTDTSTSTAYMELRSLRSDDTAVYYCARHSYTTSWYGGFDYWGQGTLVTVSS VL: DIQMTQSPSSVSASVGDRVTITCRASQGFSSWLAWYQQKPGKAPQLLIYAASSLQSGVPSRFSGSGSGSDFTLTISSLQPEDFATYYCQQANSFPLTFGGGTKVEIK" metric_name=pIC50 val=7.33
binder="H4H9671P (antibody, V domains shown) VH: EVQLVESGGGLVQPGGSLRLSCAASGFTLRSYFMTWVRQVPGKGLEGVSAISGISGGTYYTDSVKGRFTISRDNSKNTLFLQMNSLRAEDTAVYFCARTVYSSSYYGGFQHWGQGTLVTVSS VL: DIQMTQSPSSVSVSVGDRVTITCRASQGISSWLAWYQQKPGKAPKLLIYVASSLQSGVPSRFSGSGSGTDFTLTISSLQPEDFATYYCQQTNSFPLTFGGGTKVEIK" metric_name=pIC50 val=7.15
